- Tested on: U-251
- assay.text: NCI tumour cell line growth inhibition, 48 h
Calls of active or inactive are those of the source. Cut-off read from the data, not from the text of the source: active = GI50 up to about 1.1 µM and inactive = higher. Residues, ends and D or L forms follow the SMILES beside them. *: point of attachment. Cbz = O=C(OCc1ccccc1)*
measured.attribute: GI50

[[record]]
molecule = "O=C(NNC(=O)c1ccccc1Cl)c1ccccc1O"
test_system = "U-251"
assay_value = "> 100 µM (inactive)"

[[record]]
molecule = "C/C(CC(=O)NCCc1ccccc1)=N\\NC(=O)C[n+]1ccccc1"
test_system = "U-251"
assay_value = "> 100 µM (inactive)"

[[record]]
molecule = "CC(NC(=O)C(NC(=O)OCc1ccccc1)C(C)C)C(=O)NCC(=O)O (stereo not drawn) (Cbz-Val-Ala-Gly-OH; configuration not given here)"
test_system = "U-251"
assay_value = "> 100 µM (inactive)"

[[record]]
molecule = "CC(C)(C)OC(=O)NCCCCC(NC(=O)c1ccccc1)C(N)=O (stereo unspecified)"
test_system = "U-251"
assay_value = "> 100 µM (inactive)"

[[record]]
molecule = "CSc1ccc2c(cc1=O)[C@@H](NC(=O)c1ccc(N)cc1)CCc1cc(O)c(O)c(O)c1-2"
test_system = "U-251"
assay_value = "19.4 µM (inactive)"

[[record]]
molecule = "C[C@@H]1C[C@](O)([C@@H](C)Cl)C(=O)O[C@@H]2CCN3CC=C(COC(=O)[C@]1(C)O)[C@H]23"
test_system = "U-251"
assay_value = "> 100 µM (inactive)"

[[record]]
molecule = "Nc1ccc(I)cn1"
test_system = "U-251"
assay_value = "> 100 µM (inactive)"

[[record]]
molecule = "C=C1C(=O)OC2CC(C)C3C=CC(=O)C3CC12 (stereo unspecified)"
test_system = "U-251"
assay_value = "6.76 µM (inactive)"

[[record]]
molecule = "Cc1cc2nc(N3C(=O)/C(=C/Cc4ccco4)N=C3c3ccccc3)sc2cc1C"
test_system = "U-251"
assay_value = "29 µM (inactive)"

[[record]]
molecule = "O=C(NC1CCCCC1)N1CCNC1=S"
test_system = "U-251"
assay_value = "1.91 µM (inactive)"


Read the next record carefully.
Query string: For `O=C1/C(=C/Cc2ccco2)N=C(c2ccccc2)N1c1nc2ccc(Sc3ccccc3)cc2[nH]1` , write its GI50.
Result string: 19.7 µM (inactive)

###

- Test system: TK-10
- assay.text: NCI tumour cell line growth inhibition, 48 h
The source made the active and inactive calls. Rule as the data show it: active = GI50 up to about 1.1 µM and inactive = higher.
measured.attribute: GI50

A selection of reference data follows.
[[record]]
compound = "CC(C)CC(NC(=O)OC(C)(C)C)C(=O)Nc1ccc(Nc2nc(F)nc(-c3c4ccccc4c4n3CCS4)n2)cc1 (stereo unspecified)"
test_system = "TK-10"
assay_value = "28.8 µM (inactive)"

[[record]]
compound = "O=c1cc(-c2ccccc2)[nH]c2c(Cl)cccc12"
test_system = "TK-10"
assay_value = "> 100 µM (inactive)"

[[record]]
compound = "NC(S)=Nc1cc(Cl)ccc1Cl"
test_system = "TK-10"
assay_value = "> 100 µM (inactive)"

[[record]]
compound = "C/C(CC(=O)NCCc1ccccc1)=N\\NC(=O)C[n+]1ccccc1"
test_system = "TK-10"
assay_value = "> 100 µM (inactive)"

[[record]]
compound = "Cc1c(O)nc(/C=C/C(=O)O)nc1C(=O)O"
test_system = "TK-10"
assay_value = "> 100 µM (inactive)"


Read the next record carefully.
Query string: For `Cc1cc(C)c2c(c1)C(=O)/C(=C/c1ccccc1C(=O)O)C2` , write its GI50.
Result string: > 100 µM (inactive)

###

- Tested on: SNB-78
- assay.text: NCI tumour cell line growth inhibition, 48 h
Calls of active or inactive are those of the source. Rule as the data show it: active = GI50 up to about 1.1 µM and inactive = higher.
measured.attribute: GI50

A selection of reference data follows.
[[record]]
molecule = "NC(=O)NN=C(CS)CS"
test_system = "SNB-78"
assay_value = "41 µM (inactive)"

[[record]]
molecule = "CC(=O)Nc1ccc(/C=c2\\sc3nnc(CCC(=O)Nc4ccccc4Cl)n3c2=O)cc1"
test_system = "SNB-78"
assay_value = "47.3 µM (inactive)"

[[record]]
molecule = "COCCNC(=O)C1C(=O)C(=O)N(CCOC)C1=O (configuration not stated)"
test_system = "SNB-78"
assay_value = "> 100 µM (inactive)"

[[record]]
molecule = "CCN(CC)CCOc1ccc(/C=C(\\C#N)c2ccc(OCCN(CC)CC)cc2)cc1"
test_system = "SNB-78"
assay_value = "20.5 µM (inactive)"

[[record]]
molecule = "O=Cc1cc2sc(C=O)cc2s1"
test_system = "SNB-78"
assay_value = "> 100 µM (inactive)"


// batch mode: one GI50 value per listed entry
1. COc1cc2c(cc1O)[C@H](C)C(c1ccccc1OC)O2 (some centres not stated)
2. O=C(O)CC(O)(c1ccccc1C(=O)O)c1cccc2ccccc12 (configuration not stated)
3. C[C@]12C=CC(=O)C=C1CC[C@@H]1[C@@H]2CC[C@]2(C)OC(=O)CC[C@@H]12 [TESTOLACTONE]
4. O=C1c2ccccc2C(=O)c2[nH]cnc21
5. C1=Cc2nc1c(-c1ccncc1)c1ccc([n-]1)c(-c1ccncc1)c1nc(c(-c3ccncc3)c3ccc([n-]3)c2-c2ccncc2)C=C1.[Zn+2]
6. N#CC(C(=O)CCC(=O)Nc1ccc(Cl)c(Cl)c1)c1ccccc1 (configuration not stated)
7. CCOc1ccccc1NC(=O)CC(C(=O)OC)C(=O)C(=O)OC (configuration not stated)

Result string:
5.78 µM (inactive)
> 100 µM (inactive)
460 µM (inactive)
41.3 µM (inactive)
> 100 µM (inactive)
> 100 µM (inactive)
> 100 µM (inactive)

// batch mode: one GI50 value per listed entry
1. O=C(NCCCCCCNC(=O)n1cc(F)c(=O)[nH]c1=O)NCCCOCCOCCCNC(=O)C(O)C(O)C(O)C(O)CO (configuration not stated)
2. O=C(c1ccccc1)[C@H]1Nc2ccc(Cl)cc2C2c3ccccc3CC21 (some centres not stated)
3. Cc1ccc(NC(=O)C(=O)Cc2nc3ccccc3o2)c(C)c1
4. OC(c1ccccc1)(c1ccccc1)c1ccncc1
5. CC1=NC(C(C)C)C(=O)O1 (configuration not stated)
6. Cc1ccc(SC2C(C)(C)N(C(C)C)P2(=O)N(C(C)C)C(C)C)cc1 (configuration not stated)

Result string:
1: > 2.5 µM (inactive); 2: > 100 µM (inactive); 3: > 100 µM (inactive); 4: > 100 µM (inactive); 5: > 100 µM (inactive); 6: > 68.5 µM (inactive)

###

- System: PC-3
- assay.text: NCI tumour cell line growth inhibition, 48 h
Activity calls are given as the source filed them. Rule as the data show it: active = GI50 up to about 1.1 µM and inactive = higher.
Provide the reported GI50 of each item.

A selection of reference data follows.
[[record]]
compound = "S=C1CSc2c(cnc3ccccc23)N1"
assay_value = "68.4 µM (inactive)"

[[record]]
compound = "CCN(CC)CCNc1ccc2nnn3c4ccc([N+](=O)[O-])cc4c(=O)c1c23"
assay_value = "5.26 µM (inactive)"

[[record]]
compound = "Cc1ccc(S(=O)(=O)N(CC(O)COc2ccccc2)c2c(F)c(F)c(F)c(F)c2F)cc1 (stereo unspecified)"
assay_value = "13.6 µM (inactive)"


// batch mode: one GI50 value per listed entry
1. COc1ccc(/C=C/NC=O)cc1
2. CC(=O)O[C@H]1CCC2[C@@H]3CC[C@]4(C)CC(=O)C=C[C@]4(C)C3CC[C@@]21C (stereo partly specified)
3. Cc1ccc(Nc2nc(N)nc3c2ncn3C2OC(CO)C(O)C2O)cc1 (stereo unspecified)
4. CCSc1nc(N)c2c(-c3ccccc3)c3c(nc2n1)CCC3
5. COC1(OC)N=C(N)C2(C#N)C(C)CC(=O)N(N(C)C)C12C#N (stereo unspecified)
6. COC1(OC)c2no[n+]([O-])c2C(OC)(OC)c2c1no[n+]2[O-]
7. N#CC1=C(N)C(C#N)(C#N)C(c2ccc(F)cc2)C=C1C1CC1 (stereo unspecified)
8. CCOc1cc(NC(C)=O)ccc1C(=O)NNC(=O)c1ccccc1OC(C)=O

Result string:
["> 100 µM (inactive)", "29.4 µM (inactive)", "> 100 µM (inactive)", "> 100 µM (inactive)", "> 100 µM (inactive)", "25.3 µM (inactive)", "10.2 µM (inactive)", "11.1 µM (inactive)"]

###

- Test system: MDA-MB-435
- assay.text: NCI tumour cell line growth inhibition, 48 h
Calls of active or inactive are those of the source. No stated cut-off is given here; in the data, active = GI50 up to about 1.1 µM and inactive = higher.
Lab note: assign the record to one of active, inactive

The examples below pair each entry with its known result.
[[record]]
compound = "[N-]=[N+]=Nc1cc(=O)[nH]c2ccccc12"
class_label = "inactive"

[[record]]
compound = "S=C(Nc1ccc2c(c1)oc1ccccc12)c1cccs1"
class_label = "inactive"

[[record]]
compound = "NC(C(F)(F)F)(C(F)(F)F)P(=O)(c1ccccc1)c1ccccc1"
class_label = "inactive"


Query string: Name the outcome recorded for `Cc1cc(N=C2C=C(Br)C(=O)C(Br)=C2)cc(CN(CC(=O)O)CC(=O)O)c1O` in the assay.
Result string: inactive

Query string: Name the outcome recorded for `N=C(N)c1ccc(/C=C/c2ccc(C(=N)N)cc2)cc1` in the assay.
Result string: inactive
